METHOD NOTES: NCI Yeast Anticancer Drug Screen. Data for the mlh1 rad18 strain (AID 175)
CONDITION LABEL: S. cerevisiae mlh1 rad18 strain growth inhibition; at 5.0 µM (retest, dose inferred, filed as 0.5); active compounds read high
The panel holds about 79,000 compounds, 15% with a hit somewhere; the sample as a whole holds those more often.
Label 0 if growth inhibition falls below 10%; label 1 in every other case.

INSERT INTO assay_data (molecule, assigned_label) VALUES
  ('CN(C)C(=O)c1ccc(SC(=S)NCc2ccccc2)cc1', 1),
  ('COC1C=COC2(C)Oc3c(C)c(O)c4c(O)c(c(C5SCCS5)c(O)c4c3C2=O)NC(=O)C(C)=C/C=C\C(C)C2OC(C)(C)OC(C2C)C(C)C(OC(C)=O)C1C (configuration not stated)', 0),
  ('CN(C)c1nc(N(C)C)oc(=[N+](C)C)n1', 0),
  ('S=C1Nc2cnc3ccccc3c2SC1c1ccccc1 (configuration not stated)', 0),
  ('CCC(CC)COC(=O)c1ccc(O)c(O)c1', 0),
  ('COC(=O)c1c(C)cccc1C(=O)c1ccc(C)cc1C', 0),
  ('CC[N+]1(C)CCC(O)(/C=C/c2ccccc2)C(C(=O)/C=C/c2ccccc2)C1 (configuration not stated)', 1),
  ('Cc1ccc(N)c(Cc2c(O)ccc3ccccc23)c1', 0),
  ('CC#Cc1cc2c(cc1O)CC[C@@H]1[C@@H]2CC[C@]2(C)[C@@H](O)CC[C@@H]12', 1),
  ('CC(C)(C)c1cc(C(O)(C(F)(F)F)C(F)(F)F)c(S)c(C(O)(C(F)(F)F)C(F)(F)F)c1', 0),
  ('O=C1c2ccccc2C(=O)c2sccc21', 0),
  ('CC(=O)c1csc2c1C(=O)c1scc(C(C)=O)c1C2=O', 1),
  ('O=S1(=O)CC(Cl)(Cl)C1', 0),
  ('CCC(CC)(C(=O)Nc1ccc2c(c1)c(=O)c1ccccc1n2C)C(=O)Nc1ccc2c(c1)c(=O)c1ccccc1n2C', 0),
  ('CNC(=O)N/N=C/c1ccc([N+](=O)[O-])o1', 1),
  ('COc1ccc(C2Oc3c(cccc3OC)C=C2[N+](=O)[O-])cc1 (configuration not stated)', 1),
  ('O=C(CCN(Cc1ccccc1)Cc1ccccc1)c1ccc2ccccc2c1', 1),
  ('CCCCCCCCCCCC(=O)N1CCCC1', 0),
  ('O=C(NCCN1CCN2Cc3[nH]c4ccccc4c3CC2C1)c1ccc(Cl)cc1 (configuration not stated)', 0),
  ('COc1cccnc1/C=N/NC(N)=S', 0),
  ('[NH-]c1ccccc1[S-].[NH-]c1ccccc1[S-].[Zn]', 1),
  ('CC1=C(C(=O)Nc2cccc(Cl)c2)C(c2ccccc2O)C(C(=O)Nc2cccc(Cl)c2)=C(C)N1', 1),
  ('CC(C)(C)C1=NC(=S)SC2=NC(=O)C3(NN21)c1ccccc1-c1ccccc13', 0),
  ('O=C(Cn1cnc2ccc([N+](=O)[O-])cc21)N1CCN(c2ccccc2)CC1', 0),
  ('CCC(=O)OCC(=O)c1ccc(-c2ccccc2)cc1', 0),
  ('COc1cc(/C=C2/SC(=S)NC2=O)cc(OC)c1O', 0),
  ('CN1c2ccccc2C(C)(C)C12C=Cc1cc(O)ccc1O2 (configuration not stated)', 0),
  ('CCCCCCCCCCCCCCOC(=O)C(N)Cc1ccc(O)cc1 (configuration not stated)', 0),
  ('Nc1nccc(NCCCCCCNc2ccnc(N)n2)n1', 1),
  ('COc1ccc2c(c1)CCc1c-2ccc(C)c1CCC(=O)O', 1),
  ('CCCCCCCCCCCCCC(=O)OCC(O)CO (configuration not stated)', 0),
  ('CCCN(CCC)CC(O)c1cc(-c2ccccc2)nc2c(Cl)cc(Cl)cc12 (configuration not stated)', 0),
  ('C/C(=N\NC(=S)N1CCN(Cc2ccccc2)CC1)c1ccccn1', 1),
  ('CC(C)CNc1cc(Cl)nc(N)n1', 0),
  ('C[N+](C)(C)CCC(=O)c1ccco1', 0),
  ('CC(C)CC(NC(=O)COc1c(Cl)cc(Cl)c(Cl)c1Cl)C(=O)O (configuration not stated)', 0),
  ('CCCCCN(CCCCC)CC(O)c1cc2ccccc2c2ccccc12 (configuration not stated)', 1),
  ('O=C(Nc1c(Cl)cccc1Cl)Oc1cccc2cccnc12', 1),
  ('Cc1nc(Nc2c(C)cccc2C)c2c(C)c[nH]c2n1', 0),
  ('O=C(Nc1ccccc1F)C(Br)C(Br)c1ccccc1 (configuration not stated)', 1),
  ('Cc1c(N)cccc1[N+](=O)[O-]', 0),
  ('Cc1c(C)c2cc3c(=O)ccoc3c(C)c2oc1=O', 0),
  ('COc1ccc(NC(=O)CCC(=O)CC(=O)c2ccncc2)cc1', 0),
  ('NC(=O)NC(CC(=O)O)C(=O)O (configuration not stated)', 0),
  ('O=C(NCCCCCNC(=O)C12CC3CC(CC(C3)C1)C2)C12CC3CC(CC(C3)C1)C2', 0),
  ('Clc1cc(Cl)c(NN=C(c2ccccc2)c2ccccc2)c(Cl)c1', 1);
